Target: Telomerase reverse transcriptase (Homo sapiens, UniProt O14746)
Sequence (O14746 whole entry): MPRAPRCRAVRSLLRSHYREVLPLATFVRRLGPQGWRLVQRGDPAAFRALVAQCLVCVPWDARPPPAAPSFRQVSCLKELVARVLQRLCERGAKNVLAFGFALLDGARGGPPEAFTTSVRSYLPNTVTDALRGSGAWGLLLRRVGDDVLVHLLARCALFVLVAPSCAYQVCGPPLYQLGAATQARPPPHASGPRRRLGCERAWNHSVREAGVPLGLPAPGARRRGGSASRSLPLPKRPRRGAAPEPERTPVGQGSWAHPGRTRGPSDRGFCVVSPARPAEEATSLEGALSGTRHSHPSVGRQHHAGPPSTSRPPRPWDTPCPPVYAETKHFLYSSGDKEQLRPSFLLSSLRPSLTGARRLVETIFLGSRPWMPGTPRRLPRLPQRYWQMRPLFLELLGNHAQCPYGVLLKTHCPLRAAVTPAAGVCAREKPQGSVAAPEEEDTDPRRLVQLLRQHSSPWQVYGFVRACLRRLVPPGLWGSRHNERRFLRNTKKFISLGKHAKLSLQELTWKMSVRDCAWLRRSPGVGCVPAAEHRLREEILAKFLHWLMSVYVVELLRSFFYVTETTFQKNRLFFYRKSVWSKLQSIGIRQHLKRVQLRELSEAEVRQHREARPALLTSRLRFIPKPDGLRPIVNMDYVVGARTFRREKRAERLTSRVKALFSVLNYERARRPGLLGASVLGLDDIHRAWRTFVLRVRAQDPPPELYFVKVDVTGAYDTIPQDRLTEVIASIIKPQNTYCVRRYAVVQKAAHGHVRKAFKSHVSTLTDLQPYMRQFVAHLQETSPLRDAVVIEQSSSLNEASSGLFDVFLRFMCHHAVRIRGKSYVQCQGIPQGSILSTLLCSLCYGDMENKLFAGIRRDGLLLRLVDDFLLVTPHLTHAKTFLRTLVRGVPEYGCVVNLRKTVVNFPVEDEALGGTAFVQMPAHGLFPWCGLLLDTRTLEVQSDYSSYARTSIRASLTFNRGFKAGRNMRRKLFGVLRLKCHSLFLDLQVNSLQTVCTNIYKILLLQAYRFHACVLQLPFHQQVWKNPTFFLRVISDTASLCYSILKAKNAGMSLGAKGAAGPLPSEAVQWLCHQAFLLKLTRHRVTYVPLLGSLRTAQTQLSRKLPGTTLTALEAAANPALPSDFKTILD
Assay: Inhibition of telomerase activity from human A2780 cells
Measured Metric: EC50 (nM)

| Compound Structure String | Readout Number |
| --- | --- |
| O=C(CCCN1CCCC1)Nc1ccc(Nc2c3ccc(NC(=O)CCN4CCCC4)cc3nc3cc(NC(=O)CCN4CCCC4)ccc23)cc1 | 117 |

1. O=C(CN1CCCC1)Nc1ccc2cc3ccc(NC(=O)CN4CCCC4)cc3nc2c1
2. O=C(CCCCCN1CCCC1)Nc1ccc2c(Nc3ccc(NC(=O)CCN4CCCC4)cc3)c3ccc(NC(=O)CCCCCN4CCCC4)cc3nc2c1
3. O=C(CCN1CCCC1)Nc1ccc(Nc2c3ccc(NC(=O)CCN4CCCC4)cc3nc3cc(NC(=O)CCN4CCCC4)ccc23)cc1
Incoming: Endpoint returns the given compounds ordered by ascending EC50. Respond with an ordered listing of the labels, as requested.
Outgoing: 3, 2, 1
